System: southern army worm
MEASUREMENT_PROTOCOL: Initial contact activity, southern army worm
CONDITION_CONTEXT: 1250 ppm, 48 h exposure
METRIC: % Kill, AW (initial contact) (%)
One number for each entry, in %.

Solved cases below.
CN(Sc1ccc(C(C)(C)C)cc1)C(=O)Oc1cccc2c1OC(C)(C)C2	100
CN(Sc1ccc(Cl)cc1)C(=O)Oc1cccc2c1OC(C)(C)C2	100

Hi team, please reply with % Kill, AW (initial contact) for each item in this list.
1. Cc1ccccc1SN(C)C(=O)Oc1cccc2c1OC(C)(C)C2
2. Cc1cc(C(C)(C)C)ccc1SN(C)C(=O)Oc1cccc2c1OC(C)(C)C2
3. CN(Sc1ccc2c(c1)OCO2)C(=O)Oc1cccc2c1OC(C)(C)C2
4. Cc1cccc(SN(C)C(=O)Oc2cccc3c2OC(C)(C)C3)c1
5. CN(Sc1nc2ccccc2s1)C(=O)Oc1cccc2c1OC(C)(C)C2
6. Cc1ccc(SN(C)C(=O)Oc2cccc3c2OC(C)(C)C3)cc1
7. Cc1cc(Br)ccc1SN(C)C(=O)Oc1cccc2c1OC(C)(C)C2

1: 100; 2: 95; 3: 100; 4: 100; 5: 62; 6: 100; 7: 100

* * *

System: Mexican bean beetle
MEASUREMENT_PROTOCOL: whole plant or invertebrate
CONDITION_CONTEXT: Epilachna varivestis, 48 h, read-out: % Kill, BB (systemic)
METRIC: mortality at 39 ppm (%)
Answers are plain numbers, in %.

Solved cases below.
Cc1cccc(SN(C)C(=O)Oc2cccc3c2OC(C)(C)C3)c1 [Example X]	100
Cc1cc(C(C)(C)C)ccc1SN(C)C(=O)Oc1cccc2c1OC(C)(C)C2 [Example VI]	85
CN(Sc1ccc(C(C)(C)C)cc1)C(=O)Oc1cccc2c1OC(C)(C)C2 [Example III]	56
Cc1cc(Br)ccc1SN(C)C(=O)Oc1cccc2c1OC(C)(C)C2 [XI]	95

--- query ---
Supply measured mortality at 39 ppm of Cc1ccc(SN(C)C(=O)Oc2cccc3c2OC(C)(C)C3)cc1 [IV] in your reply.
100

* * *

System: two-spotted spider mite
MEASUREMENT_PROTOCOL: whole plant or invertebrate
CONDITION_CONTEXT: Tetranychus urticae, 48 h, read-out: % Kill, SM (systemic)
Lab note: compare mortality at 39 ppm against 10%. Equal or greater, write rule met. Smaller, write rule not met.

See these solved cases before continuing.
Cc1ccccc1SN(C)C(=O)Oc1cccc2c1OC(C)(C)C2	rule not met
Cc1cc(C(C)(C)C)ccc1SN(C)C(=O)Oc1cccc2c1OC(C)(C)C2	rule met
CN(Sc1nc2ccccc2s1)C(=O)Oc1cccc2c1OC(C)(C)C2	rule not met
CN(Sc1ccc(C(C)(C)C)cc1)C(=O)Oc1cccc2c1OC(C)(C)C2	rule not met
CN(Sc1ccc(Cl)cc1)C(=O)Oc1cccc2c1OC(C)(C)C2	rule met

Say whether `Cc1cccc(SN(C)C(=O)Oc2cccc3c2OC(C)(C)C3)c1` shows mortality at 39 ppm of 10% or more.
rule met

Say whether `Cc1ccc(SN(C)C(=O)Oc2cccc3c2OC(C)(C)C3)cc1` shows mortality at 39 ppm of 10% or more.
rule met

Say whether `Cc1cc(Br)ccc1SN(C)C(=O)Oc1cccc2c1OC(C)(C)C2` shows mortality at 39 ppm of 10% or more.
rule met

* * *

Tested on: southern army worm
CONDITION_CONTEXT: 39 ppm soil watering; group printed before the slash (separate test vs carbofuran); 2880 min
Kindly supply the reported % Kill, AW (systemic) values for the records listed here.
Give bare numbers, in %.

Solved cases below.
CN(Sc1nc2ccccc2s1)C(=O)Oc1cccc2c1OC(C)(C)C2 [Example VII]	0
Cc1cc(Br)ccc1SN(C)C(=O)Oc1cccc2c1OC(C)(C)C2 [XI]	75
CN(Sc1ccc(Cl)cc1)C(=O)Oc1cccc2c1OC(C)(C)C2 [Example V]	50
CN(Sc1ccc2c(c1)OCO2)C(=O)Oc1cccc2c1OC(C)(C)C2 [XIV]	14

--- query ---
Look up and report % Kill, AW (systemic), with southern army worm as system, for CNC(=O)Oc1cccc2c1OC(C)(C)C2 [Carbofuran, reference compound]
50

* * *

Test system: Mexican bean beetle
MEASUREMENT_PROTOCOL: whole plant or invertebrate
CONDITION_CONTEXT: Epilachna varivestis, 48 h, read-out: % Kill, BB (systemic)
METRIC: mortality at 39 ppm (%)
Answers are plain numbers, in %.

CN(Sc1ccc(Cl)cc1)C(=O)Oc1cccc2c1OC(C)(C)C2	95
CNC(=O)Oc1cccc2c1OC(C)(C)C2 [Carbofuran, reference compound]	100
Cc1ccccc1SN(C)C(=O)Oc1cccc2c1OC(C)(C)C2	100
CN(Sc1nc2ccccc2s1)C(=O)Oc1cccc2c1OC(C)(C)C2	68

--- query ---
Supply measured mortality at 39 ppm of `CN(Sc1ccc2c(c1)OCO2)C(=O)Oc1cccc2c1OC(C)(C)C2` in your reply.
90

* * *

Test system: pea aphid
MEASUREMENT_PROTOCOL: Residual contact activity, pea aphid
CONDITION_CONTEXT: Acyrthosiphon pisum, 48 h, read-out: % Kill, PA (residual contact)
Kindly supply the reported mortality at 1250 ppm values for the records listed here.
Answers are plain numbers, in %.

Solved cases below.
CN(Sc1ccc(Cl)cc1)C(=O)Oc1cccc2c1OC(C)(C)C2	95
CN(Sc1ccc2c(c1)OCO2)C(=O)Oc1cccc2c1OC(C)(C)C2	10
Cc1cc(C(C)(C)C)ccc1SN(C)C(=O)Oc1cccc2c1OC(C)(C)C2	0
CN(Sc1nc2ccccc2s1)C(=O)Oc1cccc2c1OC(C)(C)C2	0

Hi team, please reply with mortality at 1250 ppm for each item in this list.
1. Cc1cc(Br)ccc1SN(C)C(=O)Oc1cccc2c1OC(C)(C)C2
2. Cc1cccc(SN(C)C(=O)Oc2cccc3c2OC(C)(C)C3)c1

1. 10
2. 100

* * *

Kindly supply the reported % Kill, AW (systemic) values for the records listed here.
System: southern army worm
CONDITION_CONTEXT: 156 ppm soil watering; 2880 min
Give bare numbers, in %.

Solved cases below.
CN(Sc1nc2ccccc2s1)C(=O)Oc1cccc2c1OC(C)(C)C2	60
Cc1cc(Br)ccc1SN(C)C(=O)Oc1cccc2c1OC(C)(C)C2	100
CN(Sc1ccc(C(C)(C)C)cc1)C(=O)Oc1cccc2c1OC(C)(C)C2	0
CN(Sc1ccc2c(c1)OCO2)C(=O)Oc1cccc2c1OC(C)(C)C2	64
Cc1cc(C(C)(C)C)ccc1SN(C)C(=O)Oc1cccc2c1OC(C)(C)C2	0

Hi team, please reply with % Kill, AW (systemic) for each item in this list.
1. CN(Sc1ccc(Cl)cc1)C(=O)Oc1cccc2c1OC(C)(C)C2
2. Cc1ccccc1SN(C)C(=O)Oc1cccc2c1OC(C)(C)C2
3. CNC(=O)Oc1cccc2c1OC(C)(C)C2 [Carbofuran, reference compound]
4. Cc1ccc(SN(C)C(=O)Oc2cccc3c2OC(C)(C)C3)cc1
5. Cc1cccc(SN(C)C(=O)Oc2cccc3c2OC(C)(C)C3)c1

80
100
100
100
100

* * *

MEASUREMENT_PROTOCOL: in vivo
CONDITION_CONTEXT: mouse, po
METRIC: LD50 at 48 h

Solved cases below.
Cc1ccc(SN(C)C(=O)Oc2cccc3c2OC(C)(C)C3)c(C)c1	50 to 100 mg/kg
CN(Sc1ccc(Br)cc1)C(=O)Oc1cccc2c1OC(C)(C)C2	50 to 75 mg/kg
CN(Sc1ccccc1)C(=O)Oc1cccc2c1OC(C)(C)C2	25 to 50 mg/kg
Cc1cc(C(C)(C)C)ccc1SN(C)C(=O)Oc1cccc2c1OC(C)(C)C2	75 to 125 mg/kg
CN(Sc1ccc2c(c1)OCO2)C(=O)Oc1cccc2c1OC(C)(C)C2	10 to 25 mg/kg
CN(Sc1ccc(C(C)(C)C)cc1)C(=O)Oc1cccc2c1OC(C)(C)C2	75 mg/kg

--- query ---
Supply measured LD50 at 48 h of `Cc1cccc(SN(C)C(=O)Oc2cccc3c2OC(C)(C)C3)c1` in your reply.
25 to 50 mg/kg

* * *

MEASUREMENT_PROTOCOL: in vivo
CONDITION_CONTEXT: mouse, po
METRIC: LD50 at 48 h (mg/kg)
Numbers only, in mg/kg.

Solved cases below.
CNC(=O)Oc1cccc2c1OC(C)(C)C2 [Carbofuran, reference compound]	2
CN(Sc1ccc(Cl)cc1)C(=O)Oc1cccc2c1OC(C)(C)C2 [Example V]	50
CN(Sc1ccc2ccccc2c1)C(=O)Oc1cccc2c1OC(C)(C)C2 [XVII]	40

--- query ---
Supply measured LD50 at 48 h of CN(Sc1nc2ccccc2s1)C(=O)Oc1cccc2c1OC(C)(C)C2 [Example VII] in your reply.
50

* * *

Tested on: houseflies
MEASUREMENT_PROTOCOL: whole plant or invertebrate
CONDITION_CONTEXT: Musca domestica, topical, 24 h, read-out: Houseflies LD50
METRIC: LD50
Mention the unit after the number when you answer.

Hi team, please reply with LD50 for each item in this list.
1. CN(Sc1ccc(Br)cc1)C(=O)Oc1cccc2c1OC(C)(C)C2
2. CN(Sc1ccccc1)C(=O)Oc1cccc2c1OC(C)(C)C2
3. CN(Sc1ccc2ccccc2c1)C(=O)Oc1cccc2c1OC(C)(C)C2
4. Cc1cc(Br)ccc1SN(C)C(=O)Oc1cccc2c1OC(C)(C)C2
5. CN(Sc1nc2ccccc2s1)C(=O)Oc1cccc2c1OC(C)(C)C2

1. 9 mg/kg
2. 9.3 mg/kg
3. 8 mg/kg
4. 11.2 mg/kg
5. 8.5 mg/kg

Hi team, please reply with LD50 for each item in this list.
1. CN(Sc1ccc2c(c1)OCO2)C(=O)Oc1cccc2c1OC(C)(C)C2
2. CN(Sc1ccc(Cl)cc1)C(=O)Oc1cccc2c1OC(C)(C)C2
3. Cc1ccc(SN(C)C(=O)Oc2cccc3c2OC(C)(C)C3)cc1
4. Cc1ccc(SN(C)C(=O)Oc2cccc3c2OC(C)(C)C3)c(C)c1
5. Cc1ccccc1SN(C)C(=O)Oc1cccc2c1OC(C)(C)C2

5 mg/kg
12.5 mg/kg
9 mg/kg
9 mg/kg
3.7 mg/kg
